# viability listing for each entry below
experiment.description: Cytotoxicity against rat peritoneal mast cells assessed as cell viability by trypan blue exclusion assay
Type: cell-based
condition.summary: read-out: Activity
measured.endpoint: viability (%)

# chemical.structure, unit.abbrev, observed
records = [
    ("CC(=O)O[C@H]1CC[C@]2(C)C3=C(CC[C@H]2C1(C)C)[C@]1(C(=O)O)CC[C@H]([C@H](C)CCC=C(C)C)[C@@]1(C)CC3", "%", 97),
    ("CC(C)=CCC[C@@H](C)[C@H]1CC[C@@]2(C(=O)O)C3=C(CC[C@]12C)[C@@]1(C)CCC(=O)C(C)(C)[C@@H]1CC3", "%", 97),
]

###

Test system: Mast cell
experiment.description: Inhibition of anti-IgE-induced histamine release in rat peritoneal mast cells
Type: functional, cell-based

# chemical.structure, study.system, IC50, µM
measured = [
    ("CC(=O)O[C@H]1CC[C@]2(C)C3=C(CC[C@H]2C1(C)C)[C@]1(C(=O)O)CC[C@H]([C@H](C)CCC=C(C)C)[C@@]1(C)CC3", "Mast cell", 10),
    ("CC(C)=CCC[C@@H](C)[C@H]1CC[C@@]2(C(=O)O)C3=C(CC[C@]12C)[C@@]1(C)CCC(=O)C(C)(C)[C@@H]1CC3", "Mast cell", 1.5),
]
